Data provenance: patent US8598202B2

- SYSTEM TESTED: Rat FAAH-1 (Rattus norvegicus, UniProt P97612)
- Sequence (P97612 1-579): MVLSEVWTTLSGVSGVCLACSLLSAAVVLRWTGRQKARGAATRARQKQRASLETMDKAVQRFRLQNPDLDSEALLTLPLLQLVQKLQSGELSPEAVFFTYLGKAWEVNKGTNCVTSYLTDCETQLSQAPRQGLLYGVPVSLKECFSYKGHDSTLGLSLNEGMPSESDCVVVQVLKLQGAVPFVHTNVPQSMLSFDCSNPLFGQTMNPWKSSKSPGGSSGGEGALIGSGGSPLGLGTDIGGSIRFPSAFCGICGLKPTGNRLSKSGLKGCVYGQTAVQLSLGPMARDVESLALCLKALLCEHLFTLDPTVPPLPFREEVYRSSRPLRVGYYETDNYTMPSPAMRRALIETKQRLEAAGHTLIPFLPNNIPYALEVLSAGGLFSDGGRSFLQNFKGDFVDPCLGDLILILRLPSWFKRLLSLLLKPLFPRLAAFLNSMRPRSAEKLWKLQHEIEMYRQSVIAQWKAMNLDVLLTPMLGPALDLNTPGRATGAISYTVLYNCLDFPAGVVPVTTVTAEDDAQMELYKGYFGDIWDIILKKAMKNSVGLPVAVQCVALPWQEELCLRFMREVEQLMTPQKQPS
- ASSAY EXPLANATION: Assay Method 2: rat FAAH-1 assay, 3H-anandamide hydrolysis in homogenate of SK-N-MC cells transfected with rat FAAH
Where a name gives a salt, the structure may show the parent alone.
EXPERIMENTAL READOUT: log10(IC50) (log10 of the value in nM)

COMPOUND: CC(=O)c1ccc(-c2cc(NC[C@H](O)c3ccccc3)ncn2)cc1
VAL: 1.00
//
COMPOUND: OCCNc1nc(NC[C@H](O)c2ccccc2)cc(-c2ccc(C(F)(F)F)c(Cl)c2)n1 [Example 160, trifluoroacetic acid salt]
VAL: 2.46
//
COMPOUND: O[C@@H](CNc1cc(-c2cc(F)c(F)c(F)c2)ncn1)c1ccccc1 [Example 54, trifluoroacetic acid salt]
VAL: 2.65
//
COMPOUND: CC(O)c1ccc(-c2cc(NC[C@H](O)c3ccccc3)ncn2)cc1F (stereo partly shown) [Example 129, trifluoroacetic acid salt]
VAL: 2.08
//
COMPOUND: O[C@@H](CNc1cc(-c2ccc3c(C(F)(F)F)csc3c2)ncn1)c1ccccc1
VAL: 2.68

====

- SYSTEM TESTED: Rat FAAH-1 (Rattus norvegicus)
- ASSAY EXPLANATION: Assay Method 2: rat FAAH-1 assay, 3H-anandamide hydrolysis in homogenate of SK-N-MC cells transfected with rat FAAH
pIC50: −log10 of the molar value. Structures can show the parent of a compound that is named as a salt.
Mark False for pIC50 values under 6, and True for everything at or above.

COMPOUND: O[C@@H](CNc1cc(-c2cnc(N3CCOCC3)nc2)ncn1)c1ccccc1 [Example 69]
CATEGORY: False
--
COMPOUND: Cc1cc(-c2cc(NC[C@H](O)c3ccccc3)ncn2)cnc1F [Example 75]
CATEGORY: False
--
COMPOUND: O[C@@H](CNc1cc(-c2ccc(Cl)c(Cl)c2)ncn1)c1ccccc1 [Example 95]
CATEGORY: True
--
COMPOUND: OC(CNc1cc(-c2ccc(C(F)(F)F)c(Cl)c2)ncn1)c1cc(C(F)(F)F)cc(C(F)(F)F)c1 (centres unmarked) [Example 217]
CATEGORY: False
--
COMPOUND: OC(CNc1cc(-c2ccc(OC(F)(F)F)cc2)ncn1)c1ccc(Cl)c(Cl)c1 (centres unmarked) [Example 114]
CATEGORY: True
--
COMPOUND: N#Cc1ccc(-c2cc(NC[C@H](O)c3ccccc3)ncn2)cn1 [Example 77]
CATEGORY: False
--
COMPOUND: OC(CNc1cc(-c2ccc(C(F)(F)F)c(Cl)c2)ncn1)c1c(F)cccc1F (centres unmarked) [Example 211]
CATEGORY: True
--
COMPOUND: OC(CNc1cc(-c2ccc(C(F)(F)F)c(Cl)c2)ncn1)c1ccc(N2CCCC2)cc1 (centres unmarked) [Example 208]
CATEGORY: True
--
COMPOUND: CSc1nc(NC[C@H](O)c2ccccc2)cc(-c2ccc(C(F)(F)F)c(F)c2)n1 [Example 102, trifluoroacetic acid salt]
CATEGORY: True
--
COMPOUND: OC(CNc1cc(-c2ccc(C(F)(F)F)c(Cl)c2)ncn1)c1cccc(C(F)(F)F)c1 (centres unmarked) [Example 135, trifluoroacetic acid salt]
CATEGORY: True
--
COMPOUND: O[C@@H](CNc1cc(-c2ccc(Cl)c(Cl)c2)nc(C2CC2)n1)c1ccccc1 [Example 136]
CATEGORY: True
--
COMPOUND: C[C@H]([C@H](O)c1ccccc1)N(C)c1cc(-c2ccc(OC(F)(F)F)cc2)ncn1 [Example 120]
CATEGORY: False
--
COMPOUND: O[C@@H](CNc1cc(-c2cc3cc(C(F)(F)F)ccc3s2)ncn1)c1ccccc1 [Example 184, trifluoroacetic acid salt]
CATEGORY: True
--
COMPOUND: OC(CNc1cc(-c2cc(C(F)(F)F)cc(C(F)(F)F)c2)ncn1)c1ccccc1 (centres unmarked) [Example 239]
CATEGORY: False
--
COMPOUND: COc1ccc(C(O)CNc2cc(-c3ccc(C(F)(F)F)c(Cl)c3)ncn2)cc1Cl (centres unmarked) [Example 203]
CATEGORY: True
--
COMPOUND: O[C@@H](CNc1cc(-c2ccc3c(C(F)(F)F)noc3c2)ncn1)c1ccc(F)cc1 [Example 177, trifluoroacetic acid salt]
CATEGORY: True
--
COMPOUND: OC(CNc1cc(-c2ccc(OC(F)(F)F)cc2)ncn1)c1ccc2c(c1)OCO2 (centres unmarked) [Example 127]
CATEGORY: True
--
COMPOUND: CN(C)c1ccc(-c2cc(NC[C@H](O)c3ccccc3)ncn2)cn1 [Example 78]
CATEGORY: False
--
COMPOUND: O[C@H](CNc1cc(-c2ccc(C(F)(F)F)c(Cl)c2)ncn1)c1ccc(Cl)c(F)c1 [Example 145]
CATEGORY: False
--
COMPOUND: CN(C)c1ccc(-c2cc(NC[C@H](O)c3ccccc3)ncn2)cc1 [Example 65]
CATEGORY: False
--
COMPOUND: Cc1ccc(-c2cc(NC[C@H](O)c3ccccc3)ncn2)cc1F [Example 20, trifluoroacetic acid salt]
CATEGORY: True
--
COMPOUND: OC(CNc1cc(-c2ccc(C(F)(F)F)c(Cl)c2)ncn1)c1ccccc1F (centres unmarked) [Example 212]
CATEGORY: True
--
COMPOUND: OC(CNc1cc(-c2c(F)cccc2F)ncn1)c1ccccc1 (centres unmarked) [Example 237]
CATEGORY: False
--
COMPOUND: CN(C)S(=O)(=O)c1ccc(-c2cc(NC[C@H](O)c3ccccc3)ncn2)cc1 [Example 76]
CATEGORY: True
--
COMPOUND: O=[N+]([O-])c1ccc(C(O)CNc2cc(-c3ccc(OC(F)(F)F)cc3)ncn2)cc1 (centres unmarked) [Example 107]
CATEGORY: True
--
COMPOUND: O[C@@H](CNc1cc(-c2cc3ccc(C(F)(F)F)cc3s2)ncn1)c1ccccc1 [Example 186, trifluoroacetic acid salt]
CATEGORY: False
--
COMPOUND: OC(CNc1cc(-c2ccc(OC(F)(F)F)cc2)ncn1)c1ccc(F)cc1 (centres unmarked) [Example 113]
CATEGORY: True
--
COMPOUND: OC(CNc1cc(-c2ccc(C(F)(F)F)c(Cl)c2)ncn1)c1cc2ccccc2s1 (centres unmarked) [Example 196]
CATEGORY: True
--
COMPOUND: C[C@@H]([C@H](O)c1ccccc1)N(C)c1cc(-c2ccc(OC(F)(F)F)cc2)ncn1 [Example 121]
CATEGORY: False
--
COMPOUND: O[C@@H](CNc1cc(-c2cc(F)cc(F)c2)ncn1)c1ccccc1 [Example 58, trifluoroacetic acid salt]
CATEGORY: True
